- Test system: GFP-14-3-3β and its binding proteins
- protocolDetails: GFP-14-3-3β co-IP with LC-MS/MS label-free quantification, untreated versus PP1c-treated
- Set-up: species or system human
- experimentalParameters: PP1 vs untreated; LFQ intensities; 3 replicates each
As shown below, each of these molecules has a reported Difference (log2), PP1 vs untreated value.
Your answer is read as log2, so omit the unit and give the number.

Check out these entries, answers already filled in.
molecule="SSBP1 (protein, UniProt Q04837 17-148, looked up) Single-stranded DNA-binding …: ESETTTSLVLERSLNRVHLLGRVGQDPVLRQVEGKNPVTIFSLATNEMWRSGDSEVYQLGDVSQKTTWHRISVFRPGLRDVAYQYVKKGSRIYLEGKIDYGEYMDKNNVRRQATTIIADNIIFLSDQTKEKE" recordedresult=0.4442
molecule="HNRNPD (protein, UniProt Q14103 2-355, looked up) Heterogeneous nuclear …: SEEQFGGDGAAAAATAAVGGSAGEQEGAMVAATQGAAAAAGSGAGTGGGTASGGTEGGSAESEGAKIDASKNEEDEGHSNSSPRHSEAATAQREEWKMFIGGLSWDTTKKDLKDYFSKFGEVVDCTLKLDPITGRSRGFGFVLFKESESVDKVMDQKEHKLNGKVIDPKRAKAMKTKEPVKKIFVGGLSPDTPEEKIREYFGGFGEVESIELPMDNKTNKRRGFCFITFKEEEPVKKIMEKKYHNVGLSKCEIKVAMSKEQYQQQQQWGSRGGFAGRARGRGGGPSQNWNQGYSNYWNQGYGNYGYNSQGYGGYGGYDYTGYNNYYGYGDYSNQQSGYGKVSRRGGHQNSYKPY" recordedresult=0.5387

Okay, next one:
Look at this molecule and give its reported Difference (log2), PP1 vs untreated. BSG (protein, UniProt P35613 22-385, looked up) Basigin: AAGFVQAPLSQQRWVGGSVELHCEAVGSPVPEIQWWFEGQGPNDTCSQLWDGARLDRVHIHATYHQHAASTISIDTLVEEDTGTYECRASNDPDRNHLTRAPRVKWVRAQAVVLVLEPGTVFTTVEDLGSKILLTCSLNDSATEVTGHRWLKGGVVLKEDALPGQKTEFKVDSDDQWGEYSCVFLPEPMGTANIQLHGPPRVKAVKSSEHINEGETAMLVCKSESVPPVTDWAWYKITDSEDKALMNGSESRFFVSSSQGRSELHIENLNMEADPGQYRCNGTSSKGSDQAIITLRVRSHLAALWPFLGIVAEVLVLVTIIFIYEKRRKPEDVLDDDDAGSAPLKSSGQHQNDKGKNVRQRNSS
0.3522
